# EXPERIMENT_NOTES: Human HepG2 cell viability assay in 384 well format
# Assay type: toxicity, cell-based
# Parameters: dose 125 nL, time 70.5 hour; concentration not given beside the values
# CONDITION_SUMMARY: HepG2 cells, read-out: Inhibition
REPORTED_ENDPOINT: cytotoxicity at 70.5 h (%)
Give bare numbers, in %.

# count of solved cases: 3
Return reported cytotoxicity at 70.5 h; argument: Cc1cc(C)cc(OCCN(C)Cc2ccc(S(=O)(=O)N(C)C)o2)c1
19.6

Please give the result for CCn1cc(C(=O)NCc2cccnc2N(C)Cc2ccccc2)cn1 too.
2.58

Likewise for Cn1cc([C@@H]2CN(S(=O)(=O)c3ccccc3F)C[C@H]2N)c2ccncc21 ?
19

For every item in the list below, what is its measured cytotoxicity at 70.5 h?
1. CC(C)(C)OC(=O)N1CC(CC(=O)NCc2ccnc(C3CC3)c2)C1
2. CN(C)[C@@H]1CCN(C(=O)NC2CCCC2)[C@H]1Cc1cnn(C)c1
3. CS(=O)(=O)NC[C@@H]1OC[C@H]2CN(Cc3ccccc3)CC[C@H]21
4. Cn1cnnc1S(=O)(=O)C1CCN(C(=O)c2ccco2)CC1
5. COc1ccccc1CNC(=O)c1[nH]ncc1Cl
6. CC(C)(Oc1ccc(F)cc1)C(=O)NCc1ccco1

-8.99
-15.8
-1.13
10.3
6.24
-2.11

Please give cytotoxicity at 70.5 h, item by item, for the list that follows.
1. COc1cc(CSc2nnc(N)n2C2CC2)ccc1SC
2. O=C(Nc1nc2c(s1)CN(S(=O)(=O)C1CC1)CC2)c1cccc(Cl)c1

1. -5.1
2. 8.23
